target: human CGRP receptor (CRLR + RAMP1) (human, UniProt Q16602 23-461; O60894 27-148); experiment: cell-based or functional assay
Sequence (Q16602 23-461 limits assumed, chain 1 of 2): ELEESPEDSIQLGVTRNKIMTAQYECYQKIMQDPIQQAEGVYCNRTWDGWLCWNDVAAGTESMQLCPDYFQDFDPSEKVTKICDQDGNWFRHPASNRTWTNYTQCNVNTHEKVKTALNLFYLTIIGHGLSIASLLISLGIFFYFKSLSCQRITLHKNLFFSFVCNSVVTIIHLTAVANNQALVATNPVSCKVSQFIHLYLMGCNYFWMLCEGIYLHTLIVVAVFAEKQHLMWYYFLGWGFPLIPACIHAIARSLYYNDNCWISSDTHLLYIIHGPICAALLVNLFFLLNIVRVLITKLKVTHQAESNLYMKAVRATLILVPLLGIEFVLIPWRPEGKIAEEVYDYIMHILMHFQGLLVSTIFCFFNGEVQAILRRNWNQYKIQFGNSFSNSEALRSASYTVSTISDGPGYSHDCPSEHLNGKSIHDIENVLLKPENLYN
Sequence (O60894 27-148 limits assumed, chain 2 of 2): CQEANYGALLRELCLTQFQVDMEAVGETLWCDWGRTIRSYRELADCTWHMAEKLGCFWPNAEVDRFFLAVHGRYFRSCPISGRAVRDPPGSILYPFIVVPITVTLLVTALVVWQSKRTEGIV
value_kind: cAMP assay IC50 (nM)
State just the number; it will be interpreted in nM.

- binder: "12E8 (antibody, human IgG2, kappa, V domains shown, also called 12E8.2) VH: QVQLVESGGGVVQPGRSLRLSCAASGFTFSSYGMHWVRQAPGKGLEWVAVISYDGSHESYADSVKGRFTISRDISKNTLYLQMNSLRAEDTAVYFCARERKRVTMSTLYYYFYYGMDVWGQGTTVTVSS VL: DITLTQTPLSLSVSPGQPASISCKSSQSLLHSDGRNYLYWYLQKPGQPPQLLIYEVSNRFSGLPDRFSGSGSGTDFTLKISRVEAEDVGIYYCMQSFPLPLTFGGGTKVEIKR"
  observed_value: 2.93
- binder: "12G8 (antibody, human IgG2, lambda, V domains shown, also called 12G8.2) VH: QVQLVESGGGVVQPGRSLRLSCAASGFTFSSFGMHWVRQAPGKGLEWVAVISFDGSIKYSVDSVKGRFTISRDNSKNTLFLQMNSLRAEDTAVYYCARDRLNYYDSSGYYHYKYYGLAVWGQGTTVTVSS VL: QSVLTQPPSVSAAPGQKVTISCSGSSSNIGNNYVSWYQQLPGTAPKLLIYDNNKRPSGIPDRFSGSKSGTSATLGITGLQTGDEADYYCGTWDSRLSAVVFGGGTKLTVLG"
  observed_value: 2.14
- binder: "9D4 (antibody, human IgG2, lambda, V domains shown, also called 09D4; 09D4.2) VH: QVQLVESGGGVVQPGRSLRLSCAASGFTFSSFGMHWVRQAPGKGLEWVAVISFDGSIKYSVDSVKGRFTISRDNSKNTLFLQMNSLRAEDTAVYYCARDRLNYYDSSGYYHYKYYGMAVWGQGTTVTVSS VL: QSVLTQPPSVSAAPGQKVTISCSGSSSNIGNNYVSWYQQFPGTAPKLLIYDNNKRPSGIPDRFSGSKSGTSATLGITGLQTGDEADYYCGTWDSRLSAVVFGGGTKLTVLG"
  observed_value: 1.4

Below: the item to evaluate.
For the binder shown here, 5F5 (antibody, human IgG2, kappa, V domains shown, also called 05F5; 05F5.1) VH: QVQLVESGGGVVQPGRSLRLSCAASGFTFSSYGMHWVRQAPGKGLEWVAVISYDGSHESYADSVKGRFTISRDISKNTLYLQMNSLRAEDTAVYFCARERKRVTMSTLYYYFYYGMDVWGQGTTVTVSS VL: DIILTQTPLSLSVTPGQPASISCKSSQSLLHSDGKTYLYWYLQKPGQPPQLLIYEVSNRFSGEPDRFSGSGSGTDFTLKISRVEAEDVGTYYCMQSFPLPLTFGGGTKVEIKR , give the reported cAMP assay IC50.
4.79
